Assayed Target: SARS-CoV-2 Spike RBD-His Tag, Sino Biological (SARS-CoV-2)

Binder	xmid (log10)
vhh_tstrep_sars2_pjl1_L_77 (VHH) VHH: QVQLQESGGGLVQAGGSLRLSCAASGRTFSEYAMGWFRQAPGKEREFVATISWSGGATYHTDSVKGRFTISRDNAKNTVYLQMNSLKPDDTAVYYCAAAGLGTVVSEWDYDYDYWGQGTQVTVSS	-1.54
vhh_tstrep_sars2_pjl1_L_124 (VHH) VHH: QVQLQESGGGLVQAGGSLRLSCAASGRTFSEYAMGWFRQAPGKEREFVATISWSGGGTYHTDSVKGRFTISRDNAKNTVYLQMNSLKPDDTAVYYCAAAGLGTVVSEWDYDYDYWGQGTQVTVSS	-1.84
vhh_tstrep_sars2_pjl1_L_133 (VHH) VHH: QVQLQESGGGLVQAGGSLRLSCAASGRTFSEYAMGWFRQAPGKEREFVATISWSGGATYHTDSVKGRFTISRDNAKNTVYLQMNSLKPDDTAVYYCAAAGLGTVVSEWDYDYDSWGQGTQVTVSS	-1.46
vhh_tstrep_sars2_pjl1_L_125 (VHH) VHH: QVQLQESGGGLVQAGGSLRLSCAASGRTFSEYAMGWFRQAPGKEREFVATISWSGGATYHTDSVKGRFTISRDNAKNTVYLQMNSLKPDDTAVYYCAAAGLRTVVSEWDYDYDYWGQGTQVTVSS	0.297
